Molecular target: UniProt Q14524
Sequence (Q14524 whole entry): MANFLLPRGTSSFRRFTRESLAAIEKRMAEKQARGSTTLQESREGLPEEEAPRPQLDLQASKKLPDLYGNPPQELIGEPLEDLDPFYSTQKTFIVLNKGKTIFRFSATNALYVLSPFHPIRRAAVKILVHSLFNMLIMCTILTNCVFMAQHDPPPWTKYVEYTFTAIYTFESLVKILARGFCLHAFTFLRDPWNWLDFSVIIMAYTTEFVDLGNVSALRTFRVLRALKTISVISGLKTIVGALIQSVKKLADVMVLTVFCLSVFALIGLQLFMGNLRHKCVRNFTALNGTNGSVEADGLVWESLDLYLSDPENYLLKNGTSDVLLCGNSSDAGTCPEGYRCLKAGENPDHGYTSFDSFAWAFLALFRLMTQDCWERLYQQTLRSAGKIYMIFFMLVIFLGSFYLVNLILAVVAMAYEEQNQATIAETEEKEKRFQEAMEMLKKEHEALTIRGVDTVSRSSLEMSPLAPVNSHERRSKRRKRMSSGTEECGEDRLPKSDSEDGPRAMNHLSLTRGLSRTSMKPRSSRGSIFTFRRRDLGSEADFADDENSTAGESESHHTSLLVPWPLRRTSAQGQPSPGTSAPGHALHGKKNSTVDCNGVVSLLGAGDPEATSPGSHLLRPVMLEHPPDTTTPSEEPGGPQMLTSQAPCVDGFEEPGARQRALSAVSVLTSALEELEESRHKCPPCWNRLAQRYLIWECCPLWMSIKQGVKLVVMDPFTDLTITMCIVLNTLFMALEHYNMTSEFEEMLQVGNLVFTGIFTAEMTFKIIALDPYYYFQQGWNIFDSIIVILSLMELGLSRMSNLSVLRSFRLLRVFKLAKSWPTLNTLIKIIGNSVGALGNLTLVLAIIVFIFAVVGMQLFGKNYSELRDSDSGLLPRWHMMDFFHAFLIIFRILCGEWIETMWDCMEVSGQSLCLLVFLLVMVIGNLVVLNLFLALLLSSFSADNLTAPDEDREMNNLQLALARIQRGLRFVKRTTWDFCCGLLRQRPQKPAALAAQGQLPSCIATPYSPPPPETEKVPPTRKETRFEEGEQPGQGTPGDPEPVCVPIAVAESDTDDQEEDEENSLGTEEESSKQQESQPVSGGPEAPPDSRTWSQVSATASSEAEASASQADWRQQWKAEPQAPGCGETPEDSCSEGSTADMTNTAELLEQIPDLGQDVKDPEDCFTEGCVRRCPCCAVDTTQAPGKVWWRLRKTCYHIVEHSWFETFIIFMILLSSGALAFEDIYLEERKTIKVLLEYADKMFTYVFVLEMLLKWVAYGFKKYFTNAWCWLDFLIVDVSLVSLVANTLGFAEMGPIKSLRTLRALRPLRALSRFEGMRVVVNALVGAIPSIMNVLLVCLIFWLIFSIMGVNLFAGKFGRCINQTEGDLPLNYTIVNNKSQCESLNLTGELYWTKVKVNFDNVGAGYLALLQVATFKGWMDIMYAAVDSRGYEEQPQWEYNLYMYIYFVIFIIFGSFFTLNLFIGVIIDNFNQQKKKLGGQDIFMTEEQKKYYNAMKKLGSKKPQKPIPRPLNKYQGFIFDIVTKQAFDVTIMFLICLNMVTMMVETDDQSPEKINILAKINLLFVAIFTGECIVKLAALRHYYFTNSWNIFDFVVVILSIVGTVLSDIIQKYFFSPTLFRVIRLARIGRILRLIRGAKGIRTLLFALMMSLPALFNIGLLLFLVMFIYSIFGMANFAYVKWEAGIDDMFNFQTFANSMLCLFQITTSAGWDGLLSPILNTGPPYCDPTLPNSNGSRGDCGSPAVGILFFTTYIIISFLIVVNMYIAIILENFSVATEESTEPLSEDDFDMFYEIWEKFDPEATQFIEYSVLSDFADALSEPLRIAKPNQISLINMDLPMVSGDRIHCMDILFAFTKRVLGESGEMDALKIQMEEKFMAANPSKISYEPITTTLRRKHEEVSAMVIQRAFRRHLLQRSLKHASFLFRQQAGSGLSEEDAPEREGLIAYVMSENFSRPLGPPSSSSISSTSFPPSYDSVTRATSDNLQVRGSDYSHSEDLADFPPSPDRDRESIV
Experiment: Peak INa screening assay (tonic block and use-dependent block)
Assay type: cell-based
Settings: % inhibition, use-dependent block of peak INa at 3 uM; 3 Hz, pulse 50; read-out: Nav1.5 Peak UDB 3 Hz 3 uM
Protocol: The assay uses an HEK293 (human embryonic kidney) cell line heterologously expressing the wild-type human cardiac sodium channel, hNaV 1.5, purchased from Millipore (Billerica, Mass.). […] After establishing the whole cell recording configuration, channels were stimulated to open with low frequency (0.1 Hz) for so that the recording can be monitored and the extent to which the recording has stabilized can be assessed. […] Both TB and UDB were analyzed by incorporating rundown correction for the peak INa.
For each entry below, report its inhibition at 3 µM value.

Examples with answers:
molecule: O=C1Oc2ccc(-c3ccc(C(F)(F)F)cc3)cc2CN1CCc1ncccn1 [Example 17]
inhibition at 3 µM: < 5%
//
molecule: O=C1Oc2ccc(-c3ccc(C(F)(F)F)cc3)cc2CN1Cc1ccccn1 [Example 24]
inhibition at 3 µM: 5.9%
//
molecule: COc1cc(C(F)(F)F)ccc1-c1ccc2c(c1)CN(Cc1cccc(C)n1)C(=O)O2 [Example 44]
inhibition at 3 µM: < 5%

Read the next record carefully.
Recorded inhibition at 3 µM for Cc1csc(CN2Cc3cc(-c4ccc(OC(F)(F)F)c(C)c4)ccc3OC2=O)n1 [Example 54] , please?
< 5%
